Quick reference: Emax of the listed items.
measurementTarget: Peroxisome proliferator-activated receptor gamma (Homo sapiens)
assayRemarks: Partial agonist activity at human PPARgamma expressed in MG-63 cells at 2 times EC50 concentration by reporter gene-based transactivation assay relative to PPARgamma full agonist
Assay type: functional, cell-based
Hi! Could you send only the number? It should be in %, unit omitted.

Example compounds with recorded Emax:
{"moleculeSmiles": "COC(=O)c1cc(CNC(=O)c2c(OC)cc(O)c3c2OC2=CC(O)=C(C(C)=O)C(=O)[C@]23C)c2ccccc2c1", "Emax [%]": 55}
{"moleculeSmiles": "COc1cc(O)c2c(c1C(=O)NCc1cc(C)cc3ccccc13)OC1=CC(O)=C(C(C)=O)C(=O)[C@]12C", "Emax [%]": 51}
{"moleculeSmiles": "COCc1cc(CNC(=O)c2c(OC)cc(O)c3c2OC2=CC(O)=C(C(C)=O)C(=O)[C@]23C)c2ccccc2c1", "Emax [%]": 44}

Now, please, on to the next compound.
Qu. Fill blank: measured Emax of the compound `COC(=O)CCc1cc(CNC(=O)c2c(OC)cc(O)c3c2OC2=CC(O)=C(C(C)=O)C(=O)[C@]23C)c2ccccc2c1` is ____.
Ans. 79

Reference for the values: ChEMBL document CHEMBL1944592
